Property: inhibition; scope: individual compounds
Target: Dual specificity calcium/calmodulin-dependent 3',5'-cyclic nucleotide phosphodiesterase 1B (Homo sapiens)
Assay: Inhibition of PDE1B (unknown origin) at 1 uM
Numbers only here, please. The scale is %.

# count of solved cases: 4
Sample `COc1cc2ncnc(Cc3ccccc3)c2cc1OC` — what was its inhibition?
0

Now the compound `COc1cc2c(N3C[C@H](C)C[C@H](C)C3)nncc2c(OC)c1OC`
0

Now the compound `COc1cc2c(N3C[C@H](C)C[C@H](C)C3)cnnc2c(OC)c1OC`
0

Now the compound `COc1cc2ncnc(Cc3cccc(Cl)c3)c2cc1OC`
24

New cases:
Sample `COc1ccc2c(N3C[C@H](C)C[C@H](C)C3)nccc2c1OC` — what was its inhibition?
0

Now the compound `COc1ccc2c(N3C[C@H](C)C[C@H](C)C3)ccnc2c1OC`
0

====

Test: Half life in mouse at 32 mg/kg, sc
Format: ADME, organism-based
Settings: in vivo
attribute_measured: half-life (h)
Numbers only here, please. The scale is h.

Sample `CCC(CC)Nc1ncnc2c(OC)c(OC)c(OC)cc12` — what was its half-life?
2

====

Test: Cmax in rat at 50 mg/kg, po after 0.25 hrs
Type: ADME, organism-based
Parameters: dose 50 mg/kg, route oral
Details: in vivo
attribute_measured: Cmax (µM)
Numbers only here, please. The scale is µM.

Sample `CCC(CC)Nc1ncnc2c(OC)c(OC)c(OC)cc12` — what was its Cmax?
10.9

====

Target: Dual specificity calcium/calmodulin-dependent 3',5'-cyclic nucleotide phosphodiesterase 1B (Homo sapiens, UniProt Q01064)
Sequence (Q01064 whole entry): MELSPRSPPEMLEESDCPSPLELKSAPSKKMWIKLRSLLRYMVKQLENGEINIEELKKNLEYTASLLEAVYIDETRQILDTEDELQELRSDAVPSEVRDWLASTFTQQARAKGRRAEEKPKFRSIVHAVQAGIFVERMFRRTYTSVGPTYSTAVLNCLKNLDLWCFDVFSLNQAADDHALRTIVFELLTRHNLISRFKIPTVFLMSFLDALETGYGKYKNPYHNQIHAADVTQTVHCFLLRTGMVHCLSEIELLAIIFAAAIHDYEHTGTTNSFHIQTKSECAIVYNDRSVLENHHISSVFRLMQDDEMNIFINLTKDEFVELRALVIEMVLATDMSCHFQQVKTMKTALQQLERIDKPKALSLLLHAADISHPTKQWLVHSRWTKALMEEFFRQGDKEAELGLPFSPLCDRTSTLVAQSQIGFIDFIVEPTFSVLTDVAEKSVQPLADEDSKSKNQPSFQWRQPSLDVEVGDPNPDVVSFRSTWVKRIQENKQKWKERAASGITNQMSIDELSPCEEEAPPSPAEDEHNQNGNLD
Test: Inhibition of PDE1B (unknown origin)
pIC50: −log10 of the molar value.
Binary call on pIC50: true (1) from 7 upward, false (0) beneath that.

pIC50 >= 7 for COc1cc2ncnc(C(C)c3cccc(Cl)c3)c2cc1OC (stereo not drawn) ?
false (0)

Now the molecule COc1ccc2c(C3CCc4ccc(F)cc43)ncnc2c1OC (stereo not drawn)
true (1)

Now the molecule COc1ccc2c(C3CCc4ccc(Br)cc43)ncnc2c1OC (stereo not drawn)
true (1)

Now the molecule COc1ccc2c(C(C)c3cccc(Cl)c3)ncnc2c1OC (stereo not drawn)
true (1)

Now the molecule COc1ccc2c(C3CCc4ccc(Cl)cc43)ncnc2c1OC (stereo not drawn)
true (1)

Now the molecule `COc1ccc2c([C@@H]3CCc4ccc(Cl)cc43)nccc2c1OC`
false (0)
